Every entry's value here was drawn from ChEMBL document CHEMBL3525926.

Biological target: Cytochrome P450 2C9 (Homo sapiens, UniProt P11712)
Sequence (P11712 whole entry): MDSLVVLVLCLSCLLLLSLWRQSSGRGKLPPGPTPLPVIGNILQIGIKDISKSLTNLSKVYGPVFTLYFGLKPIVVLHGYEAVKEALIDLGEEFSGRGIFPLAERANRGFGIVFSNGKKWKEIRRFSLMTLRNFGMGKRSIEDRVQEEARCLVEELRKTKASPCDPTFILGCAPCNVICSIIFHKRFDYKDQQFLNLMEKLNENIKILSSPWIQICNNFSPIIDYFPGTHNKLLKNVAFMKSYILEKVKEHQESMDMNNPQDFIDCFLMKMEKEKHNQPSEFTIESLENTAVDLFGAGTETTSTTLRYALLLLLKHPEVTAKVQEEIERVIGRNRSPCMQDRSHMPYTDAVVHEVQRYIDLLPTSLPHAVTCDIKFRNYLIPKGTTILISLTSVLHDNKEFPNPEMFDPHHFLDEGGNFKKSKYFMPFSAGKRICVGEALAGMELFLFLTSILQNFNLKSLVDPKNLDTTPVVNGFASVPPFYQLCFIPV
Assay: Metabolic activation assessed as CYP2C9 activation-induced cytotoxicity in human HepG2 cells transfected with human AdCYP2C9 at MOI 10 for 2 days in presence of siNrf2 at 25 to 100 uM after 24 hrs by WST-8 assay
Format: ADME, cell-based
Conditions: hepg2, 24 h
reportedProperty: Activity

Guide cases for Activity, answers given:
CCCCC(=O)N(Cc1ccc(-c2ccccc2-c2nnn[nH]2)cc1)[C@H](C(=O)O)C(C)C [VALSARTAN] : Toxic
CCCCC1=NC2(CCCC2)C(=O)N1Cc1ccc(-c2ccccc2-c2nnn[nH]2)cc1 [IRBESARTAN] : Toxic
CCCCc1nc(Cl)c(C(=O)O)n1Cc1ccc(-c2ccccc2-c2nn[nH]n2)cc1 [CARBOXYLIC ACID METABOLITE] : Non-toxic
CCCCc1nc(Cl)c(CO)n1Cc1ccc(-c2ccccc2-c2nn[nH]n2)cc1 [LOSARTAN] : Toxic
CCCc1nc2c(C)cc(-c3nc4ccccc4n3C)cc2n1Cc1ccc(-c2ccccc2C(=O)O)cc1 [TELMISARTAN] : Toxic
CCCCc1ncc(/C=C(\Cc2cccs2)C(=O)O)n1Cc1ccc(C(=O)O)cc1 [EPROSARTAN] : Toxic

Input: // map Cc1ccc(-c2nc3ccc(C)cn3c2CC(=O)N(C)C)cc1 [ZOLPIDEM] to recorded Activity (system: Cytochrome P450 2C9 (Homo sapiens, UniProt P11712))
Output: Toxic

Input: // map CN(C/C=C/C#CC(C)(C)C)Cc1cccc2ccccc12 [TERBINAFINE] to recorded Activity (system: Cytochrome P450 2C9 (Homo sapiens, UniProt P11712))
Output: Toxic

Input: // map CCCCc1nc(Cl)c(C=O)n1Cc1ccc(-c2ccccc2-c2nn[nH]n2)cc1 to recorded Activity (system: Cytochrome P450 2C9 (Homo sapiens, UniProt P11712))
Output: Non-toxic
